Target: recombinant human ACC2 (Homo sapiens (Human), UniProt O00763)
Sequence (O00763 27-2458): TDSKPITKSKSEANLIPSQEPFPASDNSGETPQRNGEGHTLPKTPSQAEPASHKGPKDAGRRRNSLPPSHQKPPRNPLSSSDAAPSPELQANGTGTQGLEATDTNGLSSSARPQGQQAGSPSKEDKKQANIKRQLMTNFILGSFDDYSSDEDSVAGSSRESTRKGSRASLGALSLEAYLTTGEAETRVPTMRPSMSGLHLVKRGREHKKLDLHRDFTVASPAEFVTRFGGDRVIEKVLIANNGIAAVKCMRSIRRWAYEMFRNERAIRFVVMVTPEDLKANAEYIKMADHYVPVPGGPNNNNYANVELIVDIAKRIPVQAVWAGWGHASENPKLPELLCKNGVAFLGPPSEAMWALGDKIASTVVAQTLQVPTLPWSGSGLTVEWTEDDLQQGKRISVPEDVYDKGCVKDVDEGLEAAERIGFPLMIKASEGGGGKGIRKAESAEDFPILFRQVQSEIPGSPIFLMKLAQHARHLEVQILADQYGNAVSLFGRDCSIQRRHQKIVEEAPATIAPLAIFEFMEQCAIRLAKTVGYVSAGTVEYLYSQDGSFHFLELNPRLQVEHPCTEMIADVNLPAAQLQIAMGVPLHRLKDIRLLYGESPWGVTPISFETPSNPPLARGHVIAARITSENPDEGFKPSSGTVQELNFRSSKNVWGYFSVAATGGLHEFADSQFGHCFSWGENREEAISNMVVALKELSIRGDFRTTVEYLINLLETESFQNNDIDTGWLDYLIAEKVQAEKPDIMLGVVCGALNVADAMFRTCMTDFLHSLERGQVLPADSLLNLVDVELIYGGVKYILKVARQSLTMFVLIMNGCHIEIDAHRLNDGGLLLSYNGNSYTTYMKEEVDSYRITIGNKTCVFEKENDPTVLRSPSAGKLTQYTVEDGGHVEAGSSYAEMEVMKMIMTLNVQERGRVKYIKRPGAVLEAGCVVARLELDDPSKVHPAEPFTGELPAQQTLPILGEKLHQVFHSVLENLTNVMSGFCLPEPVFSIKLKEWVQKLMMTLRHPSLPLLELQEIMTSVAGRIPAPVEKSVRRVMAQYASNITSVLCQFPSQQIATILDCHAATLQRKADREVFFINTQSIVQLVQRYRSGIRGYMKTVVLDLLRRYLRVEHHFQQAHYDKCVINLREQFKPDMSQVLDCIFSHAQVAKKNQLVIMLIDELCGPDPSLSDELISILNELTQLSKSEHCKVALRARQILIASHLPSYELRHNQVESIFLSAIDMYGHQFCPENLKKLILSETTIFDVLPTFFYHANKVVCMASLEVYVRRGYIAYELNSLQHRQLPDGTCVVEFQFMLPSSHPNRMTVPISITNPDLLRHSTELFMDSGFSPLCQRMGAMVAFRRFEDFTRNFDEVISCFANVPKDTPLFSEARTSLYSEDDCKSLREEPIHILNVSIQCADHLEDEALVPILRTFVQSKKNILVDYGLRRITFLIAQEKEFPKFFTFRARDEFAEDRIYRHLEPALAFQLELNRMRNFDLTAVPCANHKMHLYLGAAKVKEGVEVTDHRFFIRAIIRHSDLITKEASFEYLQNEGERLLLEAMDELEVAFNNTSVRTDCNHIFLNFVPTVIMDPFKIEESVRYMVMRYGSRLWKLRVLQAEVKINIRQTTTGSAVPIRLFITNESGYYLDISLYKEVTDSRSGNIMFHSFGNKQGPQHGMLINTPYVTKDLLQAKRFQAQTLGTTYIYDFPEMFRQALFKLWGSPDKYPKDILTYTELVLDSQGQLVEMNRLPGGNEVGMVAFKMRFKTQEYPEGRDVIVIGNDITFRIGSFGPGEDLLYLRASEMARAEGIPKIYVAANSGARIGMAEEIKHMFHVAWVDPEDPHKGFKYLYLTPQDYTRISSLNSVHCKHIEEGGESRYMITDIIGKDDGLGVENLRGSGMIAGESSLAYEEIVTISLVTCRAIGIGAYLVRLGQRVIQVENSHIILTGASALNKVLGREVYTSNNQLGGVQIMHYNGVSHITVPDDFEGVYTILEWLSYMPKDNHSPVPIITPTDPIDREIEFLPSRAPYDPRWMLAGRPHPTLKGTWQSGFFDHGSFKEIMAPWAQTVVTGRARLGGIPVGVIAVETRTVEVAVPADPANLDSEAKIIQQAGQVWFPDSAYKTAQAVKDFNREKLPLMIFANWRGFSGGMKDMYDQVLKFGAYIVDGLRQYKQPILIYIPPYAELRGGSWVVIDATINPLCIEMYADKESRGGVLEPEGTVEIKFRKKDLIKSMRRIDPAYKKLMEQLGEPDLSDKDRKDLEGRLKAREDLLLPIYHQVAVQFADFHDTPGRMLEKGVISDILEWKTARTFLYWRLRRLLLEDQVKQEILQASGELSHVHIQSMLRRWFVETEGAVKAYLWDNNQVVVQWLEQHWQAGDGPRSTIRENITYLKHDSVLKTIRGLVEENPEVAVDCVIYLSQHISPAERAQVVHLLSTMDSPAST
Experiment: Measurement of inhibitory activity on human ACC2 (MALDI-TOF MS, acetyl CoA to malonyl CoA conversion)
Format: biochemical
Conditions: Tables 155-159
Friendly reminder: IC50 below 80 nM is class 1, at or above is class 0.

Observe how each entry below is paired with its result.
CC(=O)N[C@@H](C)CO[C@H]1C[C@H](COc2ccc3nc(OC4CC(C#N)C4)sc3n2)C1 (some centres unmarked)    class 1
CC(=O)N[C@@H](C)CO[C@H]1C[C@H](COc2ncnc3c2ccn3Cc2ccc(F)cc2)C1    class 1
CC(=O)N[C@@H](C)CO[C@H]1CC[C@H](Oc2ncc(-c3ncc(C#N)cn3)cc2C#N)CC1    class 0

State whether 80 nM exceeds IC50 recorded for CC(=O)N[C@@H](C)CO[C@H]1C[C@H](COc2ncnc(OC3(c4ccccc4)CC3)c2Cl)C1 .
class 0

Hello, I'm reviewing records and need to know if IC50 of CC(=O)N[C@@H](C)CO[C@H]1CC[C@H](Oc2nc3c(F)cc(OC4CCC4)c(F)c3n2C)CC1 is below 80 nM. Could you check?
class 1

Here's an entry: CC(=O)N[C@@H](C)CO[C@H]1C[C@H](COc2ncnc3c2ccn3-c2ccccc2)C1 . Is its IC50 below 80 nM?
class 0

Lab log: compare recorded IC50 with 80 nM; is it strictly lower for CC(=O)N[C@@H](C)CO[C@H]1CC[C@H](Oc2ncc(-c3ncc(F)cn3)cc2C)CC1 ?
class 1

Input CCOc1nc2ccc(OC[C@H]3C[C@@H](OC[C@H](C)NC(C)=O)C3)nc2n1C ; condition: IC50 strictly below 80 nM. Does it hold?
class 0

Find out if reported IC50 for CC(=O)N[C@@H](C)CO[C@H]1CC[C@H](Oc2ccc3nc(OCC(F)(F)F)sc3c2F)CC1 is less than 80 nM
class 1

Regarding CC(=O)N[C@@H](C)CO[C@H]1CC[C@H](Oc2nc3c(F)c(Cl)c(OCC(F)F)c(F)c3n2C)CC1 , kindly confirm whether its IC50 is beneath 80 nM.
class 1

Could you please tell me whether IC50 recorded for CC(=O)N[C@@H](C)CO[C@H]1C[C@H](COc2ccc3nc(N4CCC4)sc3c2F)C1 is less than 80 nM?
class 0

# check: IC50 < 80 nM for CC(=O)N[C@@H](C)CO[C@H]1C[C@H](COc2ncnc(OCc3cc(F)ccn3)c2F)C1
class 1

A record lists CC(=O)N[C@@H](C)CO[C@H]1C[C@H](COc2cc3sc(C(C)C)nc3cc2F)C1 . Is its IC50 below 80 nM?
class 1

Determine if CC(=O)N[C@@H](C)CO[C@H]1CC[C@H](Oc2nc3c(Cl)cc(OCC(F)F)cc3n2C)CC1 shows IC50 strictly lower than 80 nM.
class 1

----------
Target: recombinant human ACC2 (Homo sapiens (Human))
Test: Measurement of inhibitory activity on human ACC2 (MALDI-TOF MS, acetyl CoA to malonyl CoA conversion)
Type: biochemical
Conditions: Tables 155-159
property_label: IC50 (nM)
Give bare numbers, in nM.

CC(=O)N[C@@H](C)CO[C@H]1C[C@H](COc2ncnc(OCc3ccc(F)cn3)c2F)C1    16
CC(=O)N[C@@H](C)CO[C@H]1CC[C@H](Oc2nc3c(F)cc(OCC4CC4)cc3n2C)CC1    33
CC(=O)N[C@@H](C)CO[C@H]1C[C@H](COc2ccc3nc(OC4CCC4)sc3c2F)C1    25
CC(=O)N[C@@H](C)CO[C@H]1C[C@H](COc2nccc(OCC(F)F)c2Cl)C1    503

Quick batch: IC50 for everything below.
1. CC(=O)N[C@@H](C)CO[C@H]1C[C@H](COc2nccc(NCc3ccccc3)c2Cl)C1
2. CC(=O)N[C@@H](C)CO[C@H]1CC[C@H](Oc2cc3sc(OCc4ccc(F)cc4)nc3cn2)CC1
3. CC(=O)N[C@@H](C)CO[C@H]1C[C@H](COc2nccc(OCC(C)(C)C)c2Cl)C1
4. CC(=O)N[C@@H](C)CO[C@H]1C[C@H](COc2ccc3nc(N4CC[C@H](F)C4)sc3n2)C1
5. CC(=O)N[C@@H](C)CO[C@H]1CC[C@H](Oc2nc3c(Cl)cc(OCC(F)F)c(Cl)c3n2C)CC1
6. CCOc1nc2ccc(O[C@H]3CC[C@H](OC[C@H](CC)NC(C)=O)CC3)c(F)c2s1
7. CC(=O)N[C@@H](C)CO[C@H]1C[C@H](COc2nccc3c2OCC2CCCN32)C1 (stereo partly drawn)

1: 23; 2: 172; 3: 13; 4: 110; 5: 17; 6: 21; 7: 470

Your task in this section: give IC50 for each listed record.
1. CCOc1ccc2c(c1)nc(O[C@H]1CC[C@H](OC[C@H](C)NC(C)=O)CC1)n2C
2. CC(=O)N[C@@H](C)CO[C@H]1CC[C@H](Oc2nc3cnc(OCC(F)F)cc3s2)CC1
3. CC(=O)N[C@@H](C)CO[C@H]1C[C@H](COc2ncnc(OCc3ccc(Cl)cn3)c2Cl)C1
4. CC(=O)N[C@@H](C)CO[C@H]1CC[C@H](Oc2nc3c(Cl)c(F)c(OCC(F)F)c(F)c3n2C)CC1
5. CC(=O)N[C@@H](C)CO[C@H]1CC[C@H](Oc2ccc3nc(OC(C)CF)sc3c2Cl)CC1 (stereo partly drawn)
6. CC(=O)N[C@@H](C)CO[C@H]1C[C@H](COc2ccc3nc(OC[C@@H](C)F)sc3c2)C1

385
15
8
17
31
144

Go through the items and report each one's IC50.
1. CC(=O)N[C@@H](CF)CO[C@H]1CC[C@H](Oc2nc3c(F)cc(OCC(F)F)c(F)c3n2C)CC1
2. CC(=O)N[C@@H](C)CO[C@H]1CC[C@H](Oc2ncc(-c3ncc(F)cn3)cc2C#N)CC1

[9, 41]

Hey, quick one: what's IC50 for each of these?
1. CC(=O)N[C@@H](C)CO[C@H]1CC[C@H](Oc2nc3c(Cl)c(Cl)c(OCC(F)F)cc3n2C)CC1
2. CC(=O)N[C@@H](C)CO[C@H]1C[C@H](COc2nccc3c2CCN3Cc2ccccc2)C1
3. CC(=O)N[C@@H](C)CO[C@H]1C[C@](F)(COc2ccc3nc(C(C)C)sc3n2)C1
4. CC(=O)N[C@@H](C)CO[C@H]1CC[C@H](Oc2nc3c(F)cc(F)c(F)c3n2C)CC1
5. CC(=O)N[C@@H](C)CO[C@H]1CC[C@H](Oc2ccc3nc(OCC(C)(C)C#N)sc3c2F)CC1
6. COc1ccc2nc(O[C@H]3CC[C@H](OC[C@H](C)NC(C)=O)CC3)n(C)c2c1F
7. CC(=O)N[C@@H](C)CO[C@H]1C[C@H](COc2ncnc(OCc3cnccn3)c2Cl)C1

[525, 18, 127, 25, 63, 23, 131]

The reported numbers originate from patent US10150728B2.
